Attribution: patent US10246466B2

system: Essential thrombocythemia cell line SET-2 cells (harboring endogenous JAK2 point mutation); assay: SET-2 cell proliferation assay (CellTiter-Glo); type: cell-based; conditions: Homo sapiens, 72 hours incubation, read-out: SET2 cell proli. IC50
pIC50: −log10 of the molar value.
pIC50 reference
observedProperty: pIC50

molecule="C[C@H]1COc2ccc(F)cc2[C@@H](C)Nc2ccn3ncc(c3n2)C(=O)N1 [Example 109]" qualifier== observedresult=6.40
molecule="CCCN1Cc2cc(F)ccc2OCCNC(=O)c2cnn3ccc1nc23 [Example 44]" qualifier== observedresult=5.69
molecule="O=C1NCCCOc2ccc(F)cc2C(CO)Nc2ccn3ncc1c3n2 (stereo not drawn) [Example 99]" qualifier== observedresult=5.16
molecule="CC1Nc2ccn3ncc(c3n2)C(=O)NCCOc2ccc(F)c(Cl)c21 (stereo not drawn) [Example 52]" qualifier== observedresult=5.44
molecule="[2H]C1([2H])NC(=O)c2cnn3ccc(nc23)N(C)Cc2cc(F)ccc2OC1([2H])[2H] [Example 87]" qualifier== observedresult=5.56
molecule="C[C@H]1Nc2ccn3ncc(c3n2)C(=O)NC[C@@H](O)COc2ccc(F)cc21 [Example 90]" qualifier== observedresult=5.23
molecule="O=C1NCCOc2ccc(F)cc2C(c2ccccc2)Nc2ccn3ncc1c3n2 (stereo not drawn) [Example 88]" qualifier== observedresult=5.72
molecule="C[C@H]1CNC(=O)c2cnn3ccc(nc23)N(C)Cc2cc(F)ccc2O1 [Example 97]" qualifier== observedresult=5.19
molecule="O=C1NCCCOc2ccc(F)cc2CCc2ccn3ncc1c3n2 [Example 103]" qualifier=< observedresult=5.00
molecule="O=C1NCCOc2ccc(F)cc2C(C2CC2)Nc2ccn3ncc1c3n2 (stereo not drawn) [Example 66]" qualifier== observedresult=5.81
molecule="CC1c2cc(F)ccc2OCCNC(=O)c2cnn3ccc(nc23)N1C (stereo not drawn) [Example 100]" qualifier== observedresult=5.23
molecule="O=C1NCCOc2ccc(F)cc2C(C2CCC2)Nc2ccn3ncc1c3n2 (stereo not drawn) [Example 86]" qualifier== observedresult=5.70
molecule="CN1Cc2cc(F)ccc2S(=O)(=O)CCNC(=O)c2cnn3ccc1nc23 [Example 107]" qualifier== observedresult=5.52
molecule="C[C@@H]1CNC(=O)c2cnn3ccc(nc23)N[C@H](C)c2cc(F)ccc2O1 [Example 92]" qualifier== observedresult=6.85
molecule="CN1Cc2cc(F)ccc2OCC(O)CNC(=O)c2cnn3ccc1nc23 (stereo not drawn) [Example 96]" qualifier== observedresult=5.22
molecule="C[C@H]1CNC(=O)c2cnn3ccc(nc23)N[C@H](CO)c2cc(F)ccc2O1 [Example 111]" qualifier== observedresult=5.70
molecule="CN1CCC(N2Cc3cc(F)ccc3OCCNC(=O)c3cnn4ccc2nc34)C1 (stereo not drawn) [Example 105]" qualifier=< observedresult=5.00
molecule="CC1Nc2ccn3ncc(c3n2)C(=O)NCCOc2ccc(F)cc21 (stereo not drawn) [Example 51]" qualifier== observedresult=6.37

---

target: TRKA (Homo sapiens (Human), UniProt P04629)
Sequence (P04629 33-796): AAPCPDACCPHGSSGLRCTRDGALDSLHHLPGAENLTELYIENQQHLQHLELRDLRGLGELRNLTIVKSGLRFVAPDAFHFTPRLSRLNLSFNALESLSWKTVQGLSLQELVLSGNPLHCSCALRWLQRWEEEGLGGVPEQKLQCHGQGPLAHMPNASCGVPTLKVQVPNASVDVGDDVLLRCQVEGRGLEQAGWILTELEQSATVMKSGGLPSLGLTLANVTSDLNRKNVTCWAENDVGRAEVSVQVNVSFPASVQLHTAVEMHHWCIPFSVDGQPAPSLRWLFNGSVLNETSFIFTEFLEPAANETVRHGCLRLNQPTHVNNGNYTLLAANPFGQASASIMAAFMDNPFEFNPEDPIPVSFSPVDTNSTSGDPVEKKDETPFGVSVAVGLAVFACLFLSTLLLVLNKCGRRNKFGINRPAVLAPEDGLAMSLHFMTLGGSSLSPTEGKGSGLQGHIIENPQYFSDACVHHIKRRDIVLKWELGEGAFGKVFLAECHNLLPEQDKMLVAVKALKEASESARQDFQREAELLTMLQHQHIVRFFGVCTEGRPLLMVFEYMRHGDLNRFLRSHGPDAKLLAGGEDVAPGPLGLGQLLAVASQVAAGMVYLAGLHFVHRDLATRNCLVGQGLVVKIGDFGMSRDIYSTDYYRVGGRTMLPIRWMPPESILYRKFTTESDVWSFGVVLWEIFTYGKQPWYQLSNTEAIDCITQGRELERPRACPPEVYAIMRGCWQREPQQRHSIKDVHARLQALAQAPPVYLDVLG
pKd: −log10 of the molar value.
# cutoff 10 applies to pKd; >= gives True, < gives False

compound="CC1Oc2ccn3ncc(c3n2)C(=O)NCCOc2ccc(F)c(Cl)c21 (centres unmarked)" category=False
compound="CC1Oc2ccc3ncc(n3n2)C(=O)NCCOc2ccc(F)cc21 (centres unmarked)" category=False
compound=CN1Cc2cc(F)ccc2OCCNC(=O)c2cnn3ccc1nc23 category=True
compound=CN1Cc2c(ccc(F)c2Cl)OCCNC(=O)c2cnn3ccc1nc23 category=False

---

biological target: JAK1 (Homo sapiens (Human)); experiment: KINOMEscan kinase binding assay (DiscoveRx)
Sequence (P23458 whole entry): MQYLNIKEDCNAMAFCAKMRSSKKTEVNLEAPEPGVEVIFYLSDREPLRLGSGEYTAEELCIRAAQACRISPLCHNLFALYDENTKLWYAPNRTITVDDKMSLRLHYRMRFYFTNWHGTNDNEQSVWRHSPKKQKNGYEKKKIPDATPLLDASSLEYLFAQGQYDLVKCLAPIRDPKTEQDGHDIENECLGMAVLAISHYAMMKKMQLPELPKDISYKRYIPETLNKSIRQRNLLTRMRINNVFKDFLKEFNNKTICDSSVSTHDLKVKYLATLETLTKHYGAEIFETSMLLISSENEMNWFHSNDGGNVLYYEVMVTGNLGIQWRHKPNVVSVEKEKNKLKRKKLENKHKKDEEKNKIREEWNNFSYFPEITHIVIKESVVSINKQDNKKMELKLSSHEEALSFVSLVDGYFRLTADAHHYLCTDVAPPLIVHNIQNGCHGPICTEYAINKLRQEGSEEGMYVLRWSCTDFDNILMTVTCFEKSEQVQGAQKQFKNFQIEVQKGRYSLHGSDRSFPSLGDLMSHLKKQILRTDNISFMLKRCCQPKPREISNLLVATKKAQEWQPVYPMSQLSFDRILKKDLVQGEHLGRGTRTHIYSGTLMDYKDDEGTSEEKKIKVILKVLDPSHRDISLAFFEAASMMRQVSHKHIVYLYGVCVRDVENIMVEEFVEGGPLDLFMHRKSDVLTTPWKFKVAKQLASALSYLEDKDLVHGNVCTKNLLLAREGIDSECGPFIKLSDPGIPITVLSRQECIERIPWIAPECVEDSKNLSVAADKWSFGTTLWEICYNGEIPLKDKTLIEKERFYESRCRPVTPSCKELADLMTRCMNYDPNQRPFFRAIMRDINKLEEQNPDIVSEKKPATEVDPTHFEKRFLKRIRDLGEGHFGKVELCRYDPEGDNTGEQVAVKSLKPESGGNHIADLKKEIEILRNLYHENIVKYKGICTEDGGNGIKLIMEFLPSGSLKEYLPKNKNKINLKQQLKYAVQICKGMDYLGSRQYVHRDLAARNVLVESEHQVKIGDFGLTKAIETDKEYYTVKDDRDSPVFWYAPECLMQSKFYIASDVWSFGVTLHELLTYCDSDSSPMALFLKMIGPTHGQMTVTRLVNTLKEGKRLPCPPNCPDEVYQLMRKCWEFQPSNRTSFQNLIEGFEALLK
pKd: −log10 of the molar value.
Measured pKd of individual entries
observedProperty: pKd

compound="CC1Oc2ccc3ncc(n3n2)C(=O)NCCOc2ccc(F)cc21 (stereo not drawn) [Example 41]" observedproperty=pKd qualifier== observedresult=6.55
compound="C[C@H]1Nc2ccn3ncc(c3n2)C(=O)NCCOc2ccc(F)cc21 [Example 51-1]" observedproperty=pKd qualifier== observedresult=7.43
compound="CN1Cc2cc(F)ccc2OCCNC(=O)c2cnn3ccc1nc23 [Example 20]" observedproperty=pKd qualifier=< observedresult=6.00

---

Measured pIC50 accompanies every entry in the list below.
test system: Colorectal cell line KM12 (harboring endogenous TPM3-TRKA fusion gene); test: KM12 cell proliferation assay (CellTiter-Glo); assay type: cell-based; conditions: Homo sapiens, 72 hours incubation, read-out: KM 12 cell prolif. IC50
pIC50: −log10 of the molar value.
observedProperty: pIC50

molecule="C[C@H]1CNC(=O)c2cnn3ccc(nc23)CCc2cc(F)ccc2O1 [Example 108]" targetorsystem="Colorectal cell line KM12 (harboring endogenous TPM3-TRKA fusion gene)" observedproperty=pIC50 qualifier== observedresult=8.44
molecule="CN1Cc2cc(F)ccc2OCC(O)CNC(=O)c2cnn3ccc1nc23 (stereo not shown) [Example 96]" targetorsystem="Colorectal cell line KM12 (harboring endogenous TPM3-TRKA fusion gene)" observedproperty=pIC50 qualifier== observedresult=9.22
molecule="C[C@H]1COc2ccc(F)cc2[C@@H](C)Nc2ccn3ncc(c3n2)C(=O)N1 [Example 109]" targetorsystem="Colorectal cell line KM12 (harboring endogenous TPM3-TRKA fusion gene)" observedproperty=pIC50 qualifier== observedresult=9.07
molecule="O=C1NCCCOc2ccc(F)cc2C(CO)Nc2ccn3ncc1c3n2 (stereo not shown) [Example 99]" targetorsystem="Colorectal cell line KM12 (harboring endogenous TPM3-TRKA fusion gene)" observedproperty=pIC50 qualifier== observedresult=8.20
molecule="CN1Cc2ccccc2OCCNC(=O)c2cnn3ccc1nc23 [Example 49]" targetorsystem="Colorectal cell line KM12 (harboring endogenous TPM3-TRKA fusion gene)" observedproperty=pIC50 qualifier== observedresult=8.17
molecule="O=C1NCCOc2ccc(F)cc2C(CO)Nc2ccn3ncc1c3n2 (stereo not shown) [Example 98]" targetorsystem="Colorectal cell line KM12 (harboring endogenous TPM3-TRKA fusion gene)" observedproperty=pIC50 qualifier== observedresult=8.13
molecule="C[C@H]1Nc2ccn3ncc(c3n2)C(=O)NC[C@H](O)COc2ccc(F)cc21 [Example 91]" targetorsystem="Colorectal cell line KM12 (harboring endogenous TPM3-TRKA fusion gene)" observedproperty=pIC50 qualifier== observedresult=8.74
molecule="CCC1Nc2ccn3ncc(c3n2)C(=O)NCCOc2ccc(F)cc21 (stereo not shown) [Example 85]" targetorsystem="Colorectal cell line KM12 (harboring endogenous TPM3-TRKA fusion gene)" observedproperty=pIC50 qualifier== observedresult=9.05
molecule="O=C1NCCOc2ccc(F)cc2CN(CCO)c2ccn3ncc1c3n2 [Example 47]" targetorsystem="Colorectal cell line KM12 (harboring endogenous TPM3-TRKA fusion gene)" observedproperty=pIC50 qualifier== observedresult=7.51
molecule="C[C@@H]1CNC(=O)c2cnn3ccc(nc23)N[C@H](C)c2cc(F)ccc2O1 [Example 92]" targetorsystem="Colorectal cell line KM12 (harboring endogenous TPM3-TRKA fusion gene)" observedproperty=pIC50 qualifier== observedresult=9.52
molecule="[2H]C1([2H])NC(=O)c2cnn3ccc(nc23)N(C)Cc2cc(F)ccc2OC1([2H])[2H] [Example 87]" targetorsystem="Colorectal cell line KM12 (harboring endogenous TPM3-TRKA fusion gene)" observedproperty=pIC50 qualifier== observedresult=9.52
molecule="CN1Cc2cc(F)cnc2OCCNC(=O)c2cnn3ccc1nc23 [Example 61]" targetorsystem="Colorectal cell line KM12 (harboring endogenous TPM3-TRKA fusion gene)" observedproperty=pIC50 qualifier== observedresult=9.22
molecule="Cc1nn2ccc3nc2c1C(=O)NCCOc1ccc(F)cc1CN3C [Example 40]" targetorsystem="Colorectal cell line KM12 (harboring endogenous TPM3-TRKA fusion gene)" observedproperty=pIC50 qualifier== observedresult=6.69
molecule="C[C@H]1CNC(=O)c2cnn3ccc(nc23)N[C@H](C)c2cc(F)ccc2O1 [Example 93]" targetorsystem="Colorectal cell line KM12 (harboring endogenous TPM3-TRKA fusion gene)" observedproperty=pIC50 qualifier== observedresult=9.30
molecule="COC(=O)C1Nc2ccn3ncc(c3n2)C(=O)NCCOc2ccc(F)cc21 (stereo not shown) [Example 59]" targetorsystem="Colorectal cell line KM12 (harboring endogenous TPM3-TRKA fusion gene)" observedproperty=pIC50 qualifier=< observedresult=6.00
molecule="CN1Cc2cc(F)ccc2S(=O)(=O)CCNC(=O)c2cnn3ccc1nc23 [Example 107]" targetorsystem="Colorectal cell line KM12 (harboring endogenous TPM3-TRKA fusion gene)" observedproperty=pIC50 qualifier== observedresult=7.12
molecule="CC1Oc2ccc3ncc(n3n2)C(=O)NCCOc2ccc(F)cc21 (stereo not shown) [Example 41]" targetorsystem="Colorectal cell line KM12 (harboring endogenous TPM3-TRKA fusion gene)" observedproperty=pIC50 qualifier== observedresult=6.93
molecule="C[C@H]1Nc2ccn3ncc(c3n2)C(=O)NC[C@@H](O)COc2ccc(F)cc21 [Example 90]" targetorsystem="Colorectal cell line KM12 (harboring endogenous TPM3-TRKA fusion gene)" observedproperty=pIC50 qualifier== observedresult=8.74
molecule="CC1c2cc(F)ccc2OCCNC(=O)c2cnn3ccc(nc23)N1C (stereo not shown) [Example 100]" targetorsystem="Colorectal cell line KM12 (harboring endogenous TPM3-TRKA fusion gene)" observedproperty=pIC50 qualifier== observedresult=9.22
